Provenance of the data: patent US20110015162A1

testedSystem: androgen receptor (Homo sapiens)
Sequence (P10275 whole entry, species assumed): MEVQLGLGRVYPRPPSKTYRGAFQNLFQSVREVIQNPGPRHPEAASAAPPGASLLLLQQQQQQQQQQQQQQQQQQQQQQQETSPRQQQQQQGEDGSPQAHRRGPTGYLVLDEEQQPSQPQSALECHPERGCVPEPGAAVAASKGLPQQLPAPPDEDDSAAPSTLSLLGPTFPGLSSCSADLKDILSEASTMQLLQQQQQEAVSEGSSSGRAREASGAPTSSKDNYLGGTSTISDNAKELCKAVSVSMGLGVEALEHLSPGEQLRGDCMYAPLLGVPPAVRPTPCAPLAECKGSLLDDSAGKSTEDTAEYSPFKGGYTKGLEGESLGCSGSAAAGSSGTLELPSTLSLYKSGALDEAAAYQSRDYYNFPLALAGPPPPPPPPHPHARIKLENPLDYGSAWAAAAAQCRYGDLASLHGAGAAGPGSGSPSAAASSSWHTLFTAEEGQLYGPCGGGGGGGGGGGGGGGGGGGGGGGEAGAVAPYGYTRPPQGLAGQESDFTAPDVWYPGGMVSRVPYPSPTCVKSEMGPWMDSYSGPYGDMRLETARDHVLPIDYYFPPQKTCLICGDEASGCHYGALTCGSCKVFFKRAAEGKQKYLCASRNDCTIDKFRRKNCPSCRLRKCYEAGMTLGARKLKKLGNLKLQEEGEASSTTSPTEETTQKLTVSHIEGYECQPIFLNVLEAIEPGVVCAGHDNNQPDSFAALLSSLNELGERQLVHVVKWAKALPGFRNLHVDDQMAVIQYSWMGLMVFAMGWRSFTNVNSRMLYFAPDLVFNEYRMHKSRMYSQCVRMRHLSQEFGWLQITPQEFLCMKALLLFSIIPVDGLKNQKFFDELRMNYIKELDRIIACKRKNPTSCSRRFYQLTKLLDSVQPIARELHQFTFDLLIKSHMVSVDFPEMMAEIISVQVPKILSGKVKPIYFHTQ
assayExplanation: Androgen receptor binding test
Design: expressed in transfected cells
conditionDetails: reference substance 3H-testosterone
Overview of reported Androgen receptor Competition factor across a group of compounds:
Provide a numeric answer; units are not to be included.

Guide cases for Androgen receptor Competition factor, answers given:
{"columns": ["compound", "Androgen receptor Competition factor"],
 "data": [
  ["CC[C@]12CC[C@H]3[C@@H](C=CC4=CC(=O)CC[C@@H]43)[C@@H]1[C@@H]1C[C@@H]1[C@@]21C=CC(=O)O1 [Example 3]", 62.9],
  ["C[C@]12CC[C@H]3[C@@H](CCC4=CC(=O)CC[C@@H]43)[C@@H]1[C@H]1C[C@H]1[C@@]21C=CC(=O)O1 [Example 12]", 16.5]
]}

Annotate the compound C[C@]12CC[C@H]3[C@@H](CCC4=C(Cl)C(=O)CC[C@@H]43)[C@@H]1[C@H]1C[C@H]1[C@@]21C=CC(=O)O1 [Example 18] with its measured Androgen receptor Competition factor.
7.3

====

The following compounds are shown together with reported IC50 values.
testedSystem: UniProt P10275
assayExplanation: Androgenic/antiandrogenic action by transactivation test (PC3 reporter cells)
Type: cell-based
Parameters: expressed in transfected cells; host or cells: PC3 cells
Give just the number in nM; leave the unit off.

Examples with answers:
{"columns": ["compound", "testedSystem", "IC50 [nM]"],
 "data": [
  ["C[C@]12CC[C@H]3[C@@H](C=CC4=CC(=O)CC[C@@H]43)[C@@H]1[C@H]1C[C@H]1[C@@]21C=CC(=O)O1 [Example 13]", "UniProt P10275", 100],
  ["C[C@@H]1CC2=CC(=O)CC[C@@H]2[C@H]2CC[C@@]3(C)[C@@H]([C@H]4C[C@H]4[C@@]34C=CC(=O)O4)[C@@H]21 [Example 14A]", "UniProt P10275", 1.5],
  ["C[C@]12CC[C@H]3[C@@H](C[C@@H](CO)C4=CC(=O)CC[C@@H]43)[C@@H]1[C@@H]1C[C@@H]1[C@@]21C=CC(=O)O1 [Example 21]", "UniProt P10275", 500],
  ["C[C@]12CC[C@H]3[C@H]([C@@H]1[C@H]1C[C@H]1[C@@]21C=CC(=O)O1)[C@H](C1CC1)CC1=CC(=O)CC[C@@H]13 [Example 17A]", "UniProt P10275", 11]
]}

Then there is this compound:
Answer with reported IC50 of CC[C@]12CC[C@H]3[C@@H](C[C@@H](CO)C4=CC(=O)CC[C@@H]43)[C@@H]1[C@@H]1C[C@@H]1[C@@]21C=CC(=O)O1 [Example 10]
160

====

testedSystem: progesterone receptor (Homo sapiens)
Construct: made in house; host or cells: Hi5 insect cells (cytosol)
Sequence (P06401 whole entry, species assumed): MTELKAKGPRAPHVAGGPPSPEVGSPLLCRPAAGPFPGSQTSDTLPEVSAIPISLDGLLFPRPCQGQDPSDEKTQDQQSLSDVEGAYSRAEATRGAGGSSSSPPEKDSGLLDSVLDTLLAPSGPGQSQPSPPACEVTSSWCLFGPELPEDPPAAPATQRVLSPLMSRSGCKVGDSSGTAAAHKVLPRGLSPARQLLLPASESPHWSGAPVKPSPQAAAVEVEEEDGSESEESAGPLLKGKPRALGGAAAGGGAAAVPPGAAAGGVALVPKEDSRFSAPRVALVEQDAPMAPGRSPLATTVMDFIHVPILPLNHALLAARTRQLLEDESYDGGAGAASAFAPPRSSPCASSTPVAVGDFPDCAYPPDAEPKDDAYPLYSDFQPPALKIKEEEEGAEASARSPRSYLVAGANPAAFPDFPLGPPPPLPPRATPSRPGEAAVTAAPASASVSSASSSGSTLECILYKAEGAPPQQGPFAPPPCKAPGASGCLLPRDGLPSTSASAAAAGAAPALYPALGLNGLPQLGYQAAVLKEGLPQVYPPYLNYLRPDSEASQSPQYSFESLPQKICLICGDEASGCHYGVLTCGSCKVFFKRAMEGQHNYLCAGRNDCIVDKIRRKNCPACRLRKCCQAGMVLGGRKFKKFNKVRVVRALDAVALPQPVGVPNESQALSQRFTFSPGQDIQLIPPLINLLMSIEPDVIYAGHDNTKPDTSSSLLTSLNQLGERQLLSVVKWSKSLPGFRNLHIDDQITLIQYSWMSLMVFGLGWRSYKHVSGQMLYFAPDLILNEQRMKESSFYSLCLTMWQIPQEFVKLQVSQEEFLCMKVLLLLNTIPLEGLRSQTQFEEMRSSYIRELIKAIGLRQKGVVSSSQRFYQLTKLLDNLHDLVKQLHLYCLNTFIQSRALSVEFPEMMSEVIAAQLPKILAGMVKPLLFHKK
assayExplanation: Progesterone receptor binding test
conditionDetails: CF 1 = affinity of progesterone; CF >1 lower affinity, <1 higher affinity
valueType: Progesterone receptor (PR) Competition factor
Output: the number by itself.

{"columns": ["compound", "measurement"],
 "data": [
  ["C[C@@H]1CC2=CC(=O)CC[C@@H]2[C@H]2CC[C@@]3(C)[C@@H]([C@@H]4C[C@@H]4[C@@]34C=CC(=O)O4)[C@@H]21 [Example 23A]", 3.79],
  ["C[C@]12CC[C@H]3[C@@H](CCC4=C(Cl)C(=O)CC[C@@H]43)[C@@H]1[C@@H]1C[C@@H]1[C@@]21C=CC(=O)O1 [Example 27]", 101.93],
  ["C[C@]12CC[C@H]3[C@@H](C=CC4=CC(=O)CC[C@@H]43)[C@@H]1[C@H]1C[C@H]1[C@@]21C=CC(=O)O1 [Example 13]", 7.89],
  ["CC[C@]12CC[C@H]3[C@@H]([C@@H]4C[C@@H]4C4=CC(=O)CC[C@@H]43)[C@@H]1[C@@H]1C[C@@H]1[C@@]21C=CC(=O)O1 [Example 2]", 24.37],
  ["CC[C@@H]1CC2=CC(=O)CC[C@@H]2[C@H]2CC[C@@]3(CC)[C@@H]([C@@H]4C[C@@H]4[C@@]34C=CC(=O)O4)[C@H]12 [Example 5A]", 12.00],
  ["C[C@]12CC[C@H]3[C@@H](CCC4=C(Cl)C(=O)CC[C@@H]43)[C@@H]1[C@H]1C[C@H]1[C@@]21C=CC(=O)O1 [Example 18]", 17.24],
  ["C=C[C@@H]1CC2=CC(=O)CC[C@@H]2[C@H]2CC[C@@]3(C)[C@@H]([C@H]4C[C@H]4[C@@]34C=CC(=O)O4)[C@@H]21 [Example 16A]", 3.76],
  ["CC[C@]12CC[C@H]3[C@@H](C=CC4=CC(=O)CC[C@@H]43)[C@@H]1[C@@H]1C[C@@H]1[C@@]21C=CC(=O)O1 [Example 3]", 2.72]
]}

Supply Progesterone receptor (PR) Competition factor value. Item: CC[C@]12CC[C@H]3[C@@H]([C@H]4C[C@H]4C4=CC(=O)CC[C@@H]43)[C@@H]1[C@@H]1C[C@@H]1[C@@]21C=CC(=O)O1 [Example 1]
0.76

Kindly indicate its recorded Progesterone receptor (PR) Competition factor. Item: C[C@]12CC[C@H]3[C@@H](C[C@@H](CO)C4=CC(=O)CC[C@@H]43)[C@@H]1[C@@H]1C[C@@H]1[C@@]21C=CC(=O)O1 [Example 21]
159.27
